Molecular target: PHD1KDM5B (306–360 aa) (Homo sapiens)
Construct: PHDKDM5B (residues 306–360 aa); GST (N, cleaved yes); made in house
Sequence (Q9UGL1 306-360): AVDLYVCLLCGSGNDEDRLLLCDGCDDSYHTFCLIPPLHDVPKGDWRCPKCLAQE
Test: ITC binding of H3 peptides to PHD1KDM5B
Details: ITC-200, 20 mmol/L Tris, 150 mmol/L NaCl, 1% Triton X-100, pH 7.5, 25°C, H3 peptides residues 1–10, means (± s.d.) of at least three experiments
Excerpt: The details of the preparation, purification, crystallization and determination of the PHDKDM5B (residues 306–360 aa) X-ray structure were previously described (Guo et al., [2011]). The modified pGEX-6p-1 vectors expressed proteins with the N-terminal GST tag, which is removable by cleavage with a 3C protease, enabling the use of non-tagged proteins in our studies. Only the X-ray structure of free PHD1KDM5B was obtained. […]
quantity name: Kd

[[record]]
molecule = "CC(C)[C@H](NC(=O)[C@H](CCCNC(=N)N)NC(=O)[C@H](C)N)C(=O)N[C@@H](CCCCN)C(=O)N[C@@H](CCC(N)=O)C(=O)N[C@H](C(=O)N[C@@H](C)C(=O)N[C@@H](CCCNC(=N)N)C(=O)N[C@@H](CCCCN)C(=O)N[C@@H](CO)C(=O)O)[C@@H](C)O [H3K4 (1-10aa) T3V]"
system_under_test = "PHD1KDM5B (306–360 aa) (Homo sapiens)"
experimental_value = "57.1 µM"

[[record]]
molecule = "C[C@H](N)C(=O)N[C@@H](C)C(=O)N[C@H](C(=O)N[C@@H](CCCCN)C(=O)N[C@@H](CCC(N)=O)C(=O)N[C@H](C(=O)N[C@@H](C)C(=O)N[C@@H](CCCNC(=N)N)C(=O)N[C@@H](CCCCN)C(=O)N[C@@H](CO)C(=O)O)[C@@H](C)O)[C@@H](C)O [H3K4 (1-10aa) R2A]"
system_under_test = "PHD1KDM5B (306–360 aa) (Homo sapiens)"
experimental_value = "370 µM"

[[record]]
molecule = "C[C@H](NC(=O)[C@@H](NC(=O)[C@H](CCC(N)=O)NC(=O)[C@H](CCCCN)NC(=O)[C@@H](NC(=O)[C@H](CCCNC(=N)N)NC(=O)CN)[C@@H](C)O)[C@@H](C)O)C(=O)N[C@@H](CCCNC(=N)N)C(=O)N[C@@H](CCCCN)C(=O)N[C@@H](CO)C(=O)O [H3K4 (1-10aa) A1G]"
system_under_test = "PHD1KDM5B (306–360 aa) (Homo sapiens)"
experimental_value = "305 µM"

[[record]]
molecule = "CC(C)[C@H](NC(=O)[C@H](CCC(N)=O)NC(=O)[C@H](CCCCN)NC(=O)[C@@H](NC(=O)[C@H](CCCNC(=N)N)NC(=O)[C@H](C)N)[C@@H](C)O)C(=O)N[C@@H](C)C(=O)N[C@@H](CCCNC(=N)N)C(=O)N[C@@H](CCCCN)C(=O)N[C@@H](CO)C(=O)O [H3K4 (1-10aa) T6V]"
system_under_test = "PHD1KDM5B (306–360 aa) (Homo sapiens)"
experimental_value = "61.3 µM"

